- experimental.system: T1, IL-13 (in-house) (UniProt P35225 35-146, limits assumed)
- T1 construct: SPR analyte
- T1 sequence (P35225 35-146 limits assumed): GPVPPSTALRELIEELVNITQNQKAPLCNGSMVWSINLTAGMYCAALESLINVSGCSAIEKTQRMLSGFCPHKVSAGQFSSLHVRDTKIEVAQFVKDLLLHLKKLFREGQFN
- assay.text: SPR (BIAcore T200), Fab captured on anti-Fab chip, IL-13 as analyte, 25 C, 1:1 model

# binder, koff (s⁻¹)
data = [
    ("anti-IL-13 Fab variant CDR H3 P99A (Fab, name in Kabat numbering, V domains shown, Fab; variable domains only; Kabat numbering) VH: EVTLRESGPALVKPTQTLTLTCTVSGFSLSAYSVNWIRQPPGKALEWLAMIWGDGKIVYNSALKSRLTISKDTSKNQVVLTMTNMDPVDTATYYCAGDGYYAYAMDNWGQGSLVTVSS VL: DIVLTQSPDSLSVSLGERATINCRASKSVDSYGNSFMHWYQQKPGQPPKLLIYLASNLESGVPDRFSGSGSGTDFTLTISSLQAEDVAVYYCQQNNEDPRTFGGGTKVEIK", 0.00269),
    ("anti-IL-13 Fab variant CDR L3 D94A:R96A (Fab, V domains shown, Fab; variable domains only; Kabat numbering; also called D94: R96A double substitution) VH: EVTLRESGPALVKPTQTLTLTCTVSGFSLSAYSVNWIRQPPGKALEWLAMIWGDGKIVYNSALKSRLTISKDTSKNQVVLTMTNMDPVDTATYYCAGDGYYPYAMDNWGQGSLVTVSS VL: DIVLTQSPDSLSVSLGERATINCRASKSVDSYGNSFMHWYQQKPGQPPKLLIYLASNLESGVPDRFSGSGSGTDFTLTISSLQAEDVAVYYCQQNNEAPATFGGGTKVEIK", 0.00037),
    ("anti-IL-13 Fab variant CDR H3 D95A (Fab, name in Kabat numbering, V domains shown, Fab; variable domains only; Kabat numbering) VH: EVTLRESGPALVKPTQTLTLTCTVSGFSLSAYSVNWIRQPPGKALEWLAMIWGDGKIVYNSALKSRLTISKDTSKNQVVLTMTNMDPVDTATYYCAGAGYYPYAMDNWGQGSLVTVSS VL: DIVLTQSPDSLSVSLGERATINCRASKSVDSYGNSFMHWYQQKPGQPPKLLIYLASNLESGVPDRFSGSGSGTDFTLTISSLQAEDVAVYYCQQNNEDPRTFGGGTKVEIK", 0.00111),
]
